experiment: cells; type: functional, cell-based; conditions: Homo sapiens, KG-1, 48 h
Description: Cytotoxicity against human KG1 cells assessed as inhibition of cell proliferation after 48 hrs by MTT assay
Assign IC50 to each entry below.
Provide only the numeric value, understood in µM.

Any idea what IC50 was measured for O=C(CCCOC(=O)c1cccc2c1no[n+]2[O-])NO ?
12.4

What do we get for O=C(CCCCCCCOC(=O)c1ccc2c(c1)no[n+]2[O-])NO ?
5.21

What do we get for O=C(CCCCCCCOC(=O)c1cccc2c1no[n+]2[O-])NO ?
0.53

What do we get for O=C(CCCCOC(=O)c1cccc2c1no[n+]2[O-])NO ?
6.69

What do we get for O=C(CCCCCCOC(=O)c1cccc2c1no[n+]2[O-])NO ?
2.98

What do we get for O=C(CCCCOC(=O)c1ccc2c(c1)no[n+]2[O-])NO ?
8.19

---

assay: cells; assay type: functional, cell-based; conditions: Homo sapiens, KG-1, 48 h
Reported endpoint: IC50
Hi, when you answer, please include the unit after the number. Thanks!

Any idea what IC50 was measured for O=C(CCCCCOC(=O)c1cccc2c1no[n+]2[O-])NO ?
12.4 µM

What do we get for O=C(CCCCCCOC(=O)c1ccc2c(c1)no[n+]2[O-])NO ?
0.37 µM

What do we get for O=C(CCCCCOC(=O)c1ccc2c(c1)no[n+]2[O-])NO ?
3.69 µM

What do we get for O=C(CCCOC(=O)c1ccc2c(c1)no[n+]2[O-])NO ?
4.02 µM

---

molecular target: Histone deacetylase (HDAC1 and HDAC2) (Homo sapiens, UniProt Q13547+Q92769); assay: Inhibition of HDAC1/2 in human HeLa cells using Boc-Lys (acetyl)-AMC as substrate preincubated for 30 mins followed by substrate addition measured after 30 mins by fluorescence assay; assay type: cell-based
Assign IC50 to each entry below.
Provide only the numeric value, understood in µM.

Any idea what IC50 was measured for O=C(CCCCCCOC(=O)c1cccc2c1no[n+]2[O-])NO ?
0.0128

What do we get for O=C(CCCCCCCOC(=O)c1cccc2c1no[n+]2[O-])NO ?
0.1373

What do we get for O=C(CCCCCOC(=O)c1cccc2c1no[n+]2[O-])NO ?
0.017

What do we get for O=C(CCCCOC(=O)c1ccc2c(c1)no[n+]2[O-])NO ?
2.207

What do we get for O=C(CCCCOC(=O)c1cccc2c1no[n+]2[O-])NO ?
0.2576

What do we get for O=C(CCCCCCOC(=O)c1ccc2c(c1)no[n+]2[O-])NO ?
0.0184

What do we get for O=C(CCCOC(=O)c1ccc2c(c1)no[n+]2[O-])NO ?
5.5697

What do we get for O=C(CCCOC(=O)c1cccc2c1no[n+]2[O-])NO ?
6.8072

What do we get for O=C(CCCCCOC(=O)c1ccc2c(c1)no[n+]2[O-])NO ?
0.437

What do we get for O=C(CCCCCCCOC(=O)c1ccc2c(c1)no[n+]2[O-])NO ?
0.1804

---

tested on: U-937; test: Cytotoxicity against human U937 cells assessed as inhibition of cell proliferation after 48 hrs by MTT assay; type: functional, cell-based; conditions: U-937, 48 h
Assign pIC50 to each entry below.
Notebook: values listed as pIC50 are -log10 of the concentration (mol/L).

Any idea what pIC50 was measured for O=C(CCCCCCOC(=O)c1ccc2c(c1)no[n+]2[O-])NO ?
4.91

What do we get for O=C(CCCCCCCOC(=O)c1ccc2c(c1)no[n+]2[O-])NO ?
4.93

What do we get for O=C(CCCCOC(=O)c1ccc2c(c1)no[n+]2[O-])NO ?
4.70

What do we get for O=C(CCCCCCOC(=O)c1cccc2c1no[n+]2[O-])NO ?
4.46

What do we get for O=C(CCCOC(=O)c1ccc2c(c1)no[n+]2[O-])NO ?
4.88

What do we get for O=C(CCCCCOC(=O)c1ccc2c(c1)no[n+]2[O-])NO ?
4.48

What do we get for O=C(CCCCCCC(=O)Nc1ccccc1)NO ?
5.32

What do we get for O=C(CCCCOC(=O)c1cccc2c1no[n+]2[O-])NO ?
4.95

What do we get for O=C(CCCOC(=O)c1cccc2c1no[n+]2[O-])NO ?
4.27

What do we get for O=C(CCCCCOC(=O)c1cccc2c1no[n+]2[O-])NO ?
4.67

---

system: HEL; assay: cells; format: functional, cell-based; settings: Homo sapiens, 48 h
Description: Cytotoxicity against HEL cells assessed as inhibition of cell proliferation after 48 hrs by MTT assay
Assign IC50 to each entry below.
Provide only the numeric value, understood in µM.

Any idea what IC50 was measured for O=C(CCCCOC(=O)c1ccc2c(c1)no[n+]2[O-])NO ?
1.21

What do we get for O=C(CCCOC(=O)c1ccc2c(c1)no[n+]2[O-])NO ?
2.09

What do we get for O=C(CCCCCCOC(=O)c1cccc2c1no[n+]2[O-])NO ?
3.71

What do we get for O=C(CCCCCCCOC(=O)c1ccc2c(c1)no[n+]2[O-])NO ?
1.5

What do we get for O=C(CCCCOC(=O)c1cccc2c1no[n+]2[O-])NO ?
3.14

What do we get for O=C(CCCCCCCOC(=O)c1cccc2c1no[n+]2[O-])NO ?
12.1

What do we get for O=C(CCCCCOC(=O)c1ccc2c(c1)no[n+]2[O-])NO ?
11.6

What do we get for O=C(CCCCCCOC(=O)c1ccc2c(c1)no[n+]2[O-])NO ?
1.26

What do we get for O=C(CCCOC(=O)c1cccc2c1no[n+]2[O-])NO ?
6.6

What do we get for O=C(CCCCCOC(=O)c1cccc2c1no[n+]2[O-])NO ?
3.74
